STUDY SYSTEM: Sortase A (SrtA) (Staphylococcus aureus)
Construct: SrtA residues Gln-60-Lys-206 (SrtA ΔN59), from S. aureus USA300, 6 × His tag
MEASUREMENT NOTES: biochemical
Parameters: FRET cleavage of Abz-LPATG-Dap(Dnp)-NH2 by purified SrtA, fluorescence 309/420 nm
CONDITION DESCRIPTION: read-out: SrtA relative inhibition rate (%)
Classification field: fulfilled = inhibition at 64 µg/mL at or over 70%; not fulfilled = inhibition at 64 µg/mL under 70%.

-- ask Reported inhibition at 64 µg/mL at or above 70%? `COC(=O)[C@H]1O[C@@H](Oc2cc3oc(-c4ccc(O)cc4)cc(=O)c3c(O)c2O)[C@H](O)[C@@H](O)[C@@H]1O`
-- reply fulfilled

-- ask Reported inhibition at 64 µg/mL at or above 70%? `O=C(O)[C@H]1O[C@@H](Oc2c(O)cc(O)c3c(=O)c(O)c(-c4ccc(O)c(O)c4)oc23)[C@H](O)[C@@H](O)[C@@H]1O`
-- reply fulfilled

-- ask Reported inhibition at 64 µg/mL at or above 70%? `O=c1cc(-c2ccc(Oc3c(O)cc4oc(-c5ccc(O)cc5)cc(=O)c4c3O)cc2)oc2cc(O)cc(O)c12`
-- reply not fulfilled

-- ask Reported inhibition at 64 µg/mL at or above 70%? `COc1ccc(-c2oc3cc(O)cc(O)c3c(=O)c2O)cc1O`
-- reply not fulfilled

-- ask Reported inhibition at 64 µg/mL at or above 70%? `O=C1c2c(O)cc(O)cc2O[C@H](c2ccc(O)c(O)c2)[C@H]1O`
-- reply not fulfilled

-- ask Reported inhibition at 64 µg/mL at or above 70%? `O=c1cc(-c2ccc(O)cc2)oc2c([C@@H]3O[C@H](CO)[C@@H](O)[C@H](O)[C@H]3O)c(O)c([C@@H]3O[C@H](CO)[C@@H](O)[C@H](O)[C@H]3O)c(O)c12`
-- reply not fulfilled

-- ask Reported inhibition at 64 µg/mL at or above 70%? C[C@@H]1O[C@@H](Oc2cc(O)c3c(=O)c(O)c(-c4ccc(O)c(O)c4)oc3c2)[C@H](O)[C@H](O)[C@H]1O [Vincetoxicoside B]
-- reply not fulfilled

* * *

STUDY SYSTEM: Sortase A (SrtA) (Staphylococcus aureus, UniProt Q2FV99)
Construct: SrtA residues Gln-60-Lys-206 (SrtA ΔN59), from S. aureus USA300, 6 × His tag
Sequence (Q2FV99 60-206): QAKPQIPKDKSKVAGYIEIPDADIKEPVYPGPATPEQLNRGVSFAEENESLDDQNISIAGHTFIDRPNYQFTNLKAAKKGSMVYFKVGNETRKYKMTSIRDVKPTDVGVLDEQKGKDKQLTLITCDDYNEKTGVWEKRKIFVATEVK
MEASUREMENT NOTES: biochemical
Parameters: FRET cleavage of Abz-LPATG-Dap(Dnp)-NH2 by purified SrtA, fluorescence 309/420 nm
CONDITION DESCRIPTION: library screen; read-out: Relative inhibition rate (%)
METRIC: inhibition at 64 µg/mL
Field note: include the unit after the figure.

-- ask For the compound `COc1cc(-c2oc3cc(OC)c(OC)c(O)c3c(=O)c2OC)ccc1O` , what inhibition at 64 µg/mL is on record?
-- reply 34.2%

-- ask For the compound `O=c1cc(-c2ccc(O)cc2)oc2cc(O[C@@H]3O[C@H](CO)[C@@H](O)[C@H](O)[C@H]3O)cc(O)c12` , what inhibition at 64 µg/mL is on record?
-- reply 46.8%

-- ask For the compound `COc1c(O)cc2oc(-c3ccc(O)cc3)cc(=O)c2c1O` , what inhibition at 64 µg/mL is on record?
-- reply 50%

-- ask For the compound `O=C(O)[C@H]1O[C@@H](Oc2c(O)cc(O)c3c(=O)c(O)c(-c4ccc(O)c(O)c4)oc23)[C@H](O)[C@@H](O)[C@@H]1O` , what inhibition at 64 µg/mL is on record?
-- reply 65.3%

Measured values drawn from paper PMC9430695 for this set.
